Assay: Cytotoxicity against human MSC assessed as cell viability at 1 uM treated for 6 days measured on day 7 by alamar blue assay (reference value: 98%)
Settings: MSC cells, read-out: Activity
Reported viability at 144 h, 1 µM values are given for each entry in this list.

>  <molecule>
O=c1cc(-c2cc(O)c(O)c(O)c2)oc2cc(O)cc(O)c12 [TRICETIN]

>  <scale.unit>
%

>  <viability at 144 h, 1 µM>
97

$$$$
>  <molecule>
O=C1C[C@@H](c2ccccc2)Oc2cc(O)cc(O)c21 [PINOCEMBRIN]

>  <scale.unit>
%

>  <viability at 144 h, 1 µM>
96

$$$$
>  <molecule>
COc1ccc(-c2oc3cc(O)cc(O)c3c(=O)c2O)cc1 [KAEMPFERIDE]

>  <scale.unit>
%

>  <viability at 144 h, 1 µM>
97

$$$$

---

This section presents compounds with their documented Activity values.
Assay: Induction of osteogenic differentiation in human MSC assessed as increase in ALP activity at 10 uM using p-NPP as substrate after 9 days by colorimetric method relative to control
Assay type: functional

>  <compound>
O=C1C[C@@H](c2ccc(O)c(O)c2)Oc2cc(O)cc(O)c21 [ERIODICTYOL]

>  <Activity, %>
111

$$$$
>  <compound>
COc1ccc(-c2oc3cc(O)cc(O)c3c(=O)c2O)cc1 [KAEMPFERIDE]

>  <Activity, %>
281

$$$$
>  <compound>
O=c1c(O)c(-c2ccc(O)cc2)oc2cc(O)cc(O)c12 [KAEMPFEROL]

>  <Activity, %>
268

$$$$
>  <compound>
O=C1C[C@@H](c2ccccc2)Oc2cc(O)cc(O)c21 [PINOCEMBRIN]

>  <Activity, %>
121

$$$$

---

Assay: Cytotoxicity against human MSC assessed as cell viability at 5 uM measured on day 1 by alamar blue assay (reference value: 97 to 101%)
Details: MSC cells, read-out: Activity
reported.endpoint: viability at 1 day, 5 µM (%)

>  <compound>
O=c1c(O)c(-c2ccc(O)c(O)c2)oc2cc(O)cc(O)c12

>  <reported.endpoint>
viability at 1 day, 5 µM

>  <assay.result>
100

$$$$
>  <compound>
O=c1c(O)c(-c2ccc(O)cc2)oc2cc(O)cc(O)c12

>  <reported.endpoint>
viability at 1 day, 5 µM

>  <assay.result>
104

$$$$
>  <compound>
Oc1ccc(/C=C/c2cc(O)cc(O)c2)cc1

>  <reported.endpoint>
viability at 1 day, 5 µM

>  <assay.result>
101

$$$$
>  <compound>
O=C(O[C@@H]1Cc2c(O)cc(O)cc2O[C@@H]1c1cc(O)c(O)c(O)c1)c1cc(O)c(O)c(O)c1 [EPIGALOCATECHIN GALLATE]

>  <reported.endpoint>
viability at 1 day, 5 µM

>  <assay.result>
98

$$$$
>  <compound>
Oc1cc(O)c2c(c1)O[C@H](c1ccc(O)c(O)c1)[C@H](O)C2 [(-)-EPICATECHIN]

>  <reported.endpoint>
viability at 1 day, 5 µM

>  <assay.result>
90

$$$$
>  <compound>
O=c1cc(-c2ccccc2)oc2ccccc12

>  <reported.endpoint>
viability at 1 day, 5 µM

>  <assay.result>
103

$$$$
>  <compound>
O=c1cc(-c2ccc(O)c(O)c2)oc2cc(O)cc(O)c12

>  <reported.endpoint>
viability at 1 day, 5 µM

>  <assay.result>
96

$$$$
>  <compound>
COc1ccc(-c2oc3cc(O)cc(O)c3c(=O)c2O)cc1O

>  <reported.endpoint>
viability at 1 day, 5 µM

>  <assay.result>
102

$$$$
>  <compound>
O=C1C[C@@H](c2ccc(O)cc2)Oc2cc(O)cc(O)c21

>  <reported.endpoint>
viability at 1 day, 5 µM

>  <assay.result>
105

$$$$
>  <compound>
O=c1cc(-c2ccc(O)cc2)oc2cc(O)cc(O)c12

>  <reported.endpoint>
viability at 1 day, 5 µM

>  <assay.result>
102

$$$$

---

Reported viability at 144 h, 5 µM values for the following compounds.
Test: Cytotoxicity against human MSC assessed as cell viability at 5 uM treated for 6 days measured on day 7 by alamar blue assay (reference value: 96 to 101%)
Details: MSC cells, read-out: Activity
reported.endpoint: viability at 144 h, 5 µM (%)

>  <compound>
O=c1cc(-c2ccc(O)c(O)c2)oc2cc(O)cc(O)c12

>  <reported.endpoint>
viability at 144 h, 5 µM

>  <scale.unit>
%

>  <assay.result>
94

$$$$
>  <compound>
O=C1C[C@@H](c2ccc(O)cc2)Oc2cc(O)cc(O)c21

>  <reported.endpoint>
viability at 144 h, 5 µM

>  <scale.unit>
%

>  <assay.result>
102

$$$$
>  <compound>
O=c1c(O)c(-c2ccccc2)oc2cc(O)cc(O)c12

>  <reported.endpoint>
viability at 144 h, 5 µM

>  <scale.unit>
%

>  <assay.result>
97

$$$$
>  <compound>
O=c1cc(-c2ccccc2)oc2ccccc12

>  <reported.endpoint>
viability at 144 h, 5 µM

>  <scale.unit>
%

>  <assay.result>
102

$$$$
>  <compound>
COc1cc(-c2oc3cc(O)cc(O)c3c(=O)c2O)ccc1O

>  <reported.endpoint>
viability at 144 h, 5 µM

>  <scale.unit>
%

>  <assay.result>
100

$$$$
>  <compound>
COc1ccc(-c2oc3cc(O)cc(O)c3c(=O)c2O)cc1O

>  <reported.endpoint>
viability at 144 h, 5 µM

>  <scale.unit>
%

>  <assay.result>
96

$$$$
>  <compound>
O=C1C[C@@H](c2ccc(O)c(O)c2)Oc2cc(O)cc(O)c21

>  <reported.endpoint>
viability at 144 h, 5 µM

>  <scale.unit>
%

>  <assay.result>
102

$$$$
>  <compound>
O=c1c(O)c(-c2ccc(O)cc2)oc2cc(O)cc(O)c12

>  <reported.endpoint>
viability at 144 h, 5 µM

>  <scale.unit>
%

>  <assay.result>
100

$$$$
>  <compound>
Oc1ccc(/C=C/c2cc(O)cc(O)c2)cc1

>  <reported.endpoint>
viability at 144 h, 5 µM

>  <scale.unit>
%

>  <assay.result>
97

$$$$
>  <compound>
Oc1cc(O)c2c(c1)O[C@H](c1ccc(O)c(O)c1)[C@@H](O)C2

>  <reported.endpoint>
viability at 144 h, 5 µM

>  <scale.unit>
%

>  <assay.result>
98

$$$$
>  <compound>
O=c1c(O)c(-c2ccc(O)c(O)c2)oc2cc(O)ccc12

>  <reported.endpoint>
viability at 144 h, 5 µM

>  <scale.unit>
%

>  <assay.result>
97

$$$$
>  <compound>
O=C1c2c(O)cc(O)cc2O[C@H](c2ccc(O)c(O)c2)[C@H]1O [(+)-TAXIFOLIN]

>  <reported.endpoint>
viability at 144 h, 5 µM

>  <scale.unit>
%

>  <assay.result>
98

$$$$
>  <compound>
O=c1c(O)c(-c2cc(O)c(O)c(O)c2)oc2cc(O)cc(O)c12

>  <reported.endpoint>
viability at 144 h, 5 µM

>  <scale.unit>
%

>  <assay.result>
98

$$$$
>  <compound>
COc1ccc([C@@H]2CC(=O)c3c(O)cc(O)cc3O2)cc1O

>  <reported.endpoint>
viability at 144 h, 5 µM

>  <scale.unit>
%

>  <assay.result>
99

$$$$
>  <compound>
Oc1cc(O)c2c(c1)O[C@H](c1ccc(O)c(O)c1)[C@H](O)C2 [(-)-EPICATECHIN]

>  <reported.endpoint>
viability at 144 h, 5 µM

>  <scale.unit>
%

>  <assay.result>
98

$$$$
>  <compound>
O=c1cc(-c2ccc(O)cc2)oc2cc(O)cc(O)c12

>  <reported.endpoint>
viability at 144 h, 5 µM

>  <scale.unit>
%

>  <assay.result>
97

$$$$
>  <compound>
O=C(O[C@@H]1Cc2c(O)cc(O)cc2O[C@@H]1c1cc(O)c(O)c(O)c1)c1cc(O)c(O)c(O)c1 [EPIGALOCATECHIN GALLATE]

>  <reported.endpoint>
viability at 144 h, 5 µM

>  <scale.unit>
%

>  <assay.result>
101

$$$$
>  <compound>
O=C(CCc1ccc(O)cc1)c1c(O)cc(O)cc1O

>  <reported.endpoint>
viability at 144 h, 5 µM

>  <scale.unit>
%

>  <assay.result>
98

$$$$
>  <compound>
O=c1c(O)c(-c2ccc(O)c(O)c2)oc2cc(O)cc(O)c12

>  <reported.endpoint>
viability at 144 h, 5 µM

>  <scale.unit>
%

>  <assay.result>
104

$$$$

---

Assay: Cytotoxicity against human MSC assessed as cell viability at 10 uM treated for 3 days measured on day 4 by alamar blue assay (reference value: 97 to 100%)
Conditions: MSC cells, read-out: Activity

>  <compound>
O=c1c(O)c(-c2ccc(O)cc2)oc2cc(O)cc(O)c12

>  <viability at 72 h, 10 µM, %>
98

$$$$
>  <compound>
O=C(O[C@@H]1Cc2c(O)cc(O)cc2O[C@@H]1c1cc(O)c(O)c(O)c1)c1cc(O)c(O)c(O)c1 [EPIGALOCATECHIN GALLATE]

>  <viability at 72 h, 10 µM, %>
89

$$$$
>  <compound>
O=C(CCc1ccc(O)cc1)c1c(O)cc(O)cc1O

>  <viability at 72 h, 10 µM, %>
95

$$$$
>  <compound>
O=C1C[C@@H](c2ccc(O)c(O)c2)Oc2cc(O)cc(O)c21

>  <viability at 72 h, 10 µM, %>
102

$$$$
>  <compound>
O=C1C[C@@H](c2ccc(O)cc2)Oc2cc(O)cc(O)c21

>  <viability at 72 h, 10 µM, %>
106

$$$$
>  <compound>
Oc1cc(O)c2c(c1)O[C@H](c1ccc(O)c(O)c1)[C@H](O)C2 [(-)-EPICATECHIN]

>  <viability at 72 h, 10 µM, %>
94

$$$$
>  <compound>
O=c1cc(-c2ccc(O)c(O)c2)oc2cc(O)cc(O)c12

>  <viability at 72 h, 10 µM, %>
94

$$$$
>  <compound>
O=c1cc(-c2ccccc2)oc2ccccc12

>  <viability at 72 h, 10 µM, %>
92

$$$$
>  <compound>
O=C1c2c(O)cc(O)cc2O[C@H](c2ccc(O)c(O)c2)[C@H]1O [(+)-TAXIFOLIN]

>  <viability at 72 h, 10 µM, %>
92

$$$$
>  <compound>
COc1ccc([C@@H]2CC(=O)c3c(O)cc(O)cc3O2)cc1O

>  <viability at 72 h, 10 µM, %>
103

$$$$
>  <compound>
COc1cc(-c2oc3cc(O)cc(O)c3c(=O)c2O)ccc1O

>  <viability at 72 h, 10 µM, %>
91

$$$$
>  <compound>
O=c1c(O)c(-c2ccccc2)oc2cc(O)cc(O)c12

>  <viability at 72 h, 10 µM, %>
91

$$$$
>  <compound>
Oc1ccc(/C=C/c2cc(O)cc(O)c2)cc1

>  <viability at 72 h, 10 µM, %>
100

$$$$
>  <compound>
O=c1cc(-c2ccc(O)cc2)oc2cc(O)cc(O)c12

>  <viability at 72 h, 10 µM, %>
98

$$$$
>  <compound>
COc1ccc(-c2oc3cc(O)cc(O)c3c(=O)c2O)cc1O

>  <viability at 72 h, 10 µM, %>
93

$$$$
>  <compound>
O=c1c(O)c(-c2ccc(O)c(O)c2)oc2cc(O)cc(O)c12

>  <viability at 72 h, 10 µM, %>
101

$$$$
>  <compound>
O=c1c(O)c(-c2cc(O)c(O)c(O)c2)oc2cc(O)cc(O)c12

>  <viability at 72 h, 10 µM, %>
101

$$$$
>  <compound>
Oc1cc(O)c2c(c1)O[C@H](c1ccc(O)c(O)c1)[C@@H](O)C2

>  <viability at 72 h, 10 µM, %>
93

$$$$
>  <compound>
O=c1c(O)c(-c2ccc(O)c(O)c2)oc2cc(O)ccc12

>  <viability at 72 h, 10 µM, %>
95

$$$$
